Provenance of the data: patent US20030180744

target: PDGF-BB (Homo sapiens, UniProt P01127 P01127:82-190); test: competition; PDGF alpha-receptor PAE cells, 4 C; conditions: tags: R&D Systems, E. coli; chain copies: B chain dimer; three-way helix junction
Sequence (P01127 82-190, one chain of several): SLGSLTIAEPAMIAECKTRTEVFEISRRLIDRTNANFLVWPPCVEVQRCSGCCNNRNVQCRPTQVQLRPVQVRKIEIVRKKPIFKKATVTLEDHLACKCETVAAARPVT
measurementKind: IC50

{"binder": "TGGGAGGGCGCGTTCTTCGTGGTTACTTTTAGTCCCGT (ssDNA, 3'-3' idT) [20t]", "testResult": "~1 nM"}
{"binder": "TACTCAGGGCACTGCAAGCAATTGTGGTCCCAATGGGCTGAGTAT (ssDNA, 3'-3' idT) [41t]", "testResult": "~1 nM"}
